- ASSAY_TEXT: recombinant barcode read abundance after kanamycin selection (control-corrected) (log10(CPM+1)); higher = more efficient recombination; sequences stand for … in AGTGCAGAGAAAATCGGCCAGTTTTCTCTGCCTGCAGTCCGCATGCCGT…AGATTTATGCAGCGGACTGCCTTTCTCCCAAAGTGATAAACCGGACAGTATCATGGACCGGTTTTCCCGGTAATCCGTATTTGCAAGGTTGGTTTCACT; site = the 11-nt target;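 note: IS621 recombinase and bridge RNA in Escherichia coli cells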
Listing: recombinant barcode read abundance (log10) of selected sequences
MEASURED_ENDPOINT: recombinant barcode read abundance (log10)

{"columns": ["SEQUENCE_CODE", "RECORDED_VALUE"],
 "data": [
  ["ATCACAGCTTGGGTTCTAACCTGTTGCCT (site ATCACAGCTAG)", 0.736],
  ["CGGGCGTCTTGGGTTCTAACCTGTTGCTT (site CGGGCGTCTAA)", 1.46],
  ["AGCCTGTCTTGGGTTCTAACCTGTTGCCT (site AGCCTGTCTAG)", 1.36],
  ["ATGCACGCTTGGGTTCTAACCTGTTGCCT (site ATGCACGCTAG)", 1.81],
  ["GACACGCCTTGGGTTCTAACCTGTTGCGT (site GACACGCCTAA)", 0.205],
  ["CAGTTAGCTTGGGTTCTAACCTGTTGCCT (site CAGTTTGCTAG)", 0.192],
  ["TCTGCGACTTGGGTTCTAACCTGTTGCCT (site TCTGCGACTAG)", 0.265],
  ["CGGAAGACTTGGGTTCTAACCTGTTGCCT (site CGGAAGTCTAG)", 0.516],
  ["TAGGCGCCTTGGGTTCTAACCTGTTGCTT (site TAGGCGCCTAT)", 0.0771],
  ["CTACCAACTTGGGTTCTAACCTGTTGCCT (site CTACCAACTAG)", 0.41],
  ["TACTGCTCTTGGGTTCTAACCTGTTGCTT (site TACTGCTCTAA)", 0.296],
  ["GATGCGACTTGGGTTCTAACCTGTTGCCG (site GATGTGACTAG)", 0.121],
  ["GAAGAGCCTTGGGTTCTAACCTGTTGCCT (site GAAGGGCCTAG)", 0.0404],
  ["ATTAACCCTTGGGTTCTAACCTGTTGCCT (site AATAACCCTAG)", 0.0681],
  ["TACATCCCTTGGGTTCTAACCTGTTGCCA (site TACATCCCTCG)", 0.0234],
  ["TACTTAACTTGGGTTCTAACCTGTTGCCT (site TACTGAACTAG)", 0.0656],
  ["ATCAGGTCTTGGGTTCTAACCTGTTGCCT (site ACCAGGTCTAG)", 0.18],
  ["CCGTCCTCTTGGGTTCTAACCTGTTGCTG (site CCGTCCTCTCA)", 1.01],
  ["CTCTAAACTTGGGTTCTAACCTGTTGCGA (site CTCTAAACTTC)", 0.919],
  ["CCTCACTCTTGGGTTCTAACCTGTTGCGG (site CCTCAGTCTTC)", 0],
  ["CATCCGACTTGGGTTCTAACCTGTTGCCT (site CATCCGACTAG)", 0.92],
  ["GGTTGGCCTTGGGTTCTAACCTGTTGCGG (site GGTTGACCTCC)", 0.257],
  ["GGTAACCCTTGGGTTCTAACCTGTTGCGG (site GGTAACCCTCC)", 2.24],
  ["AAGGACGCTTGGGTTCTAACCTGTTGCCT (site AAGGACGCTAG)", 2.72],
  ["CGCGGTTCTTGGGTTCTAACCTGTTGCCT (site CGAGGTTCTAG)", 0.339],
  ["GCGCACACTTGGGTTCTAACCTGTTGCCT (site GCGCACACTAG)", 1.05],
  ["TTAGTACCTTGGGTTCTAACCTGTTGCCT (site TTAGTTCCTAG)", 0.369],
  ["ATCGGAGCTTGGGTTCTAACCTGTTGCTG (site ATCGGAGCTCA)", 0.991],
  ["CTACTAACTTGGGTTCTAACCTGTTGCCT (site CTACTAACTAG)", 1.3],
  ["GATACGCCTTGGGTTCTAACCTGTTGCCT (site GATACGTCTAG)", 0.139],
  ["CACTGGACTTGGGTTCTAACCTGTTGCCT (site CAGTGGACTAG)", 0.42],
  ["ACAGCCGCTTGGGTTCTAACCTGTTGCCT (site ACAGTCGCTAG)", 0.118],
  ["TCGAGTGCTTGGGTTCTAACCTGTTGCCT (site TCGAGTCCTAG)", 0.19],
  ["CATGCTACTTGGGTTCTAACCTGTTGCTC (site CATGCGACTCA)", 0.191],
  ["TACTTGCCTTGGGTTCTAACCTGTTGCCT (site TATTTGCCTAG)", 0.182],
  ["GGGTACCCTTGGGTTCTAACCTGTTGCCT (site GCGTACCCTAG)", 0.126],
  ["ACAGTCGCTTGGGTTCTAACCTGTTGCCT (site ACAGACGCTAG)", 0.229],
  ["TAATGGTCTTGGGTTCTAACCTGTTGCAT (site TAATGTTCTAT)", 0.065],
  ["TCTCGTCCTTGGGTTCTAACCTGTTGCTA (site AGCAACACTCT)", 0.226],
  ["GCATCTACTTGGGTTCTAACCTGTTGCCT (site GTATCTACTAG)", 0.2],
  ["AACTTCCCTTGGGTTCTAACCTGTTGCCT (site AACTTCCCTAG)", 0.315],
  ["TTAACTACTTGGGTTCTAACCTGTTGCTA (site TTAACTACTGA)", 0.0479]
]}
